Here, each record is paired with measured pIC50 data.
Molecular target: one or more of HDAC-4, HDAC-5, HDAC-6, HDAC-7, HDAC-8, HDAC-9, HDAC-10 and HDAC-11
Assay: Inhibition of histone deacetylase enzymatic activity (summary statement over isoforms)
Conditions: Table 3, selected examples; HDAC isoform not given
pIC50: −log10 of the molar value.
readout label: pIC50

INSERT INTO results (compound, readout_label, measured_result) VALUES
  ('O=C(NO)C(c1ccccc1)N1CCCCC1 (stereo not shown)', 'pIC50', '> 6.00'),
  ('O=C(NO)C(c1ccccc1)c1ccc(N2CCN(Cc3ccccc3)CC2)cc1 (stereo not shown)', 'pIC50', '> 6.00'),
  ('CCN(Cc1ccccc1)c1ccc(C(C(=O)NO)c2ccccc2)cc1 (stereo not shown)', 'pIC50', '> 6.00'),
  ('O=C(NO)C(c1ccc(F)cc1)c1ccc(F)cc1', 'pIC50', '> 6.00'),
  ('Cc1cccc(COc2ccc(C(C(=O)NO)c3ccccc3)cc2)c1 (stereo not shown)', 'pIC50', '> 6.00'),
  ('O=C(NO)C(c1ccccc1)c1nnc(-c2ccccc2Oc2ccccc2)s1 (stereo not shown)', 'pIC50', '> 6.00'),
  ('O=C(NO)C(c1ccccc1)c1ccc(-c2cncnc2)cc1 (stereo not shown)', 'pIC50', '> 6.00'),
  ('O=C(NO)C(c1ccccc1)c1ccc(Nc2ccccc2)cc1 (stereo not shown)', 'pIC50', '> 6.00'),
  ('O=C(NO)C(c1ccccc1)c1cccc(-c2ccccc2C(F)(F)F)c1 (stereo not shown)', 'pIC50', '> 6.00'),
  ('O=C(NO)C(c1ccccc1)c1cccc(OC2CCCC2)c1 (stereo not shown)', 'pIC50', '4.82 to 6.00'),
  ('Cc1ccc(OC(C(=O)NO)c2ccccc2)c2c1CCC2 (stereo not shown)', 'pIC50', '4.82 to 6.00'),
  ('Cc1cccc(OC(C(=O)NO)c2ccccc2)c1 (stereo not shown)', 'pIC50', '4.82 to 6.00'),
  ('O=C(Nc1ccc(C(C(=O)NO)c2ccccc2)cc1)c1ccnc(Cl)c1 (stereo not shown)', 'pIC50', '> 6.00'),
  ('O=C(NO)C(c1ccccc1)c1ccc(C#Cc2ccccc2)cc1 (stereo not shown)', 'pIC50', '> 6.00'),
  ('COc1ccc(-c2ccc(C(C(=O)NO)c3ccccc3)cc2)cc1OC (stereo not shown)', 'pIC50', '> 6.00'),
  ('COc1cccc(CNc2cccc(C(C(=O)NO)c3ccccc3)c2)c1 (stereo not shown)', 'pIC50', '> 6.00'),
  ('O=C(NO)C(c1ccccc1)c1ccc(OC/C=C/c2ccccc2)cc1 (stereo not shown)', 'pIC50', '> 6.00'),
  ('O=C(NO)C(c1ccccc1)c1cccc(C#Cc2ccccc2)c1 (stereo not shown)', 'pIC50', '4.82 to 6.00'),
  ('C=CCOc1ccc(C(C(=O)NO)c2ccccc2)cc1 (stereo not shown)', 'pIC50', '> 6.00');

Attribution: patent US9096565B2
